# Lookup of reported inhibition keyed by entry
# experimental.target: DNA topoisomerase 2-alpha (Homo sapiens)
# assay: Inhibition of human topoisomerase 2 at 100 uM relative to control

# structure.smiles, inhibition
rows = [
    ("COc1ccc(C(=O)/C=C/c2ccc(F)cc2)c(O)c1", "0%"),
    ("COc1ccc(/C=C/C(=O)c2ccc(O)cc2)cc1Br", "1.2%"),
    ("COc1cc(O)ccc1/C=C/C(=O)c1ccc(N)cc1", "0%"),
    ("COc1cc(O)ccc1/C=C/C(=O)c1ccc(O)cc1", "1.6%"),
    ("O=C(/C=C/c1ccc(N2CCCC2)cc1)c1ccc(F)cc1", "0%"),
    ("COc1cc(O)ccc1/C=C/C(=O)c1ccc(NC(C)=O)cc1", "0%"),
]
